target.of.assay: Choline Kinase alpha enzyme (Homo sapiens)
Construct: hChoKα1(M1-V457) (NP_001268); GST (N); made in house; host or cells: E. coli BL21(DE3)
Sequence (P35790 whole entry): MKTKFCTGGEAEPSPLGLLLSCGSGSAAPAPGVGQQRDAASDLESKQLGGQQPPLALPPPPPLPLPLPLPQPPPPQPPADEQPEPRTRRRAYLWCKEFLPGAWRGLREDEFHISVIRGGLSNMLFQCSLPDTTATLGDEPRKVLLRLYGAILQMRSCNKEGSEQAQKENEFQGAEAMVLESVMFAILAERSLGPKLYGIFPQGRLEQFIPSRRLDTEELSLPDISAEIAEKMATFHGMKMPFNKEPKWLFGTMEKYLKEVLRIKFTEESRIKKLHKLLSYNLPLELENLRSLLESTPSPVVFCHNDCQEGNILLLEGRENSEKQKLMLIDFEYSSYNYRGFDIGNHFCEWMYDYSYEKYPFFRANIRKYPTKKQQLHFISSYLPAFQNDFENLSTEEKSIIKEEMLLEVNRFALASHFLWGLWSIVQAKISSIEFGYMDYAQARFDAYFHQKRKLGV
experiment.summary: Choline Kinase Alpha Inhibition Assay (coupled NADH absorbance)
Type: biochemical
details: 20 nM enzyme, 200 μM choline chloride, 400 μM ATP, 25° C.; read-out: IC50 values, Choline Kinase Alpha inhibition
property.measured: IC50

# compound, target.of.assay, property.measured, recorded.value
rows = [
    ("O=C(c1cccc2ccccc12)C1CN2CCC1CC2 (centres unmarked) [Compound I-17, 1-naphthyl(quinuclidin-3-yl)methanone]", "Choline Kinase alpha enzyme (Homo sapiens)", "IC50", "1 to 50 µM"),
    ("CN1CCN(C)c2cc(C(=O)C3CN4CCC3CC4)ccc21 (centres unmarked) [Compound I-28]", "Choline Kinase alpha enzyme (Homo sapiens)", "IC50", "0.1 to 1 µM"),
    ("CCc1ccc(C(=O)C2CN3CCC2CC3)cc1 (centres unmarked) [Compound I-16]", "Choline Kinase alpha enzyme (Homo sapiens)", "IC50", "0.1 to 1 µM"),
    ("COc1ccc(C(=O)C2CN3CCC2CC3)cc1 (centres unmarked) [Compound I-7]", "Choline Kinase alpha enzyme (Homo sapiens)", "IC50", "1 to 50 µM"),
    ("Cc1cc(C(=O)C2CN3CCC2CC3)ccc1N(C)C (centres unmarked) [Compound I-27]", "Choline Kinase alpha enzyme (Homo sapiens)", "IC50", "0.1 to 1 µM"),
    ("CN(C)c1c(Br)cc(C(=O)C2CN3CCC2CC3)cc1Br (centres unmarked) [Compound I-26]", "Choline Kinase alpha enzyme (Homo sapiens)", "IC50", "1 to 50 µM"),
    ("CC(C)c1ccc(C(=O)C2CN3CCC2CC3)cc1 (centres unmarked) [Compound I-36]", "Choline Kinase alpha enzyme (Homo sapiens)", "IC50", "0.1 to 1 µM"),
    ("O=C(c1cccc(-c2ccccc2)c1)C1CN2CCC1CC2 (centres unmarked) [Compound I-18]", "Choline Kinase alpha enzyme (Homo sapiens)", "IC50", "1 to 50 µM"),
    ("CN1CCc2cc(C(=O)C3CN4CCC3CC4)ccc21 (centres unmarked) [Compound I-30]", "Choline Kinase alpha enzyme (Homo sapiens)", "IC50", "0.1 to 1 µM"),
    ("Cc1ccc(C(=O)C2CN3CCC2CC3)cc1 (centres unmarked) [Compound I-32, p-tolyl(quinuclidin-3-yl)methanone]", "Choline Kinase alpha enzyme (Homo sapiens)", "IC50", "1 to 50 µM"),
]

Give Choline Kinase alpha enzyme (Homo sapiens) IC50 for the following compound: CCCc1ccc(C(=O)C2CN3CCC2CC3)cc1 (centres unmarked) [Compound I-13]
0.1 to 1 µM

Provide IC50, system Choline Kinase alpha enzyme (Homo sapiens), entry O=C(c1ccccc1)C1CN2CCC1CC2 (centres unmarked) [Compound I-35, phenyl(quinuclidin-3-yl)methanone]
1 to 50 µM

Data credit: patent US20130281445A1
